Data provenance is ChEMBL document CHEMBL4673286.

# Tested on: Quadruplex DNA
# Assay Protocol: Effect on c-myc G-quadruplex DNA (unknown origin) configuration in PBS buffer 40 mM K+ at 5 uM by spectropolarimeter
# Format: ADME, nucleic-acid assay
Value Kind: Activity

> print(dat)
                                   compound   system.tested  value.kind      result
1  O=C1C=C(c2ccc([N+](=O)[O-])cc2)N2C=CC=CC12c1ccccn1 (centres undefined)  Quadruplex DNA    Activity  Not Active
2  O=C1C=C(c2ccc3ccccc3c2)N2C=CC=CC12C(F)(F)F (centres undefined)  Quadruplex DNA    Activity  Not Active
3  O=C1C=C(c2ccc3ccccc3c2)N2C=CC=CC12c1ccccn1 (centres undefined)  Quadruplex DNA    Activity  Not Active
4  O=C1C=C(c2ccccn2)N2C=CC=CC12c1ccccn1 (centres undefined)  Quadruplex DNA    Activity  Not Active

###

Property: inhibition at 10 µM; scope: individual compounds
# Tested on: HT-1080
# Assay Protocol: Cytotoxicity against human HT-1080 cells assessed as reduction in cell viability at 10 uM incubated for 72 hrs by MTT assay relative to control
# Type: functional
Value Kind: inhibition at 10 µM (%)

> print(dat)
                                   compound  measured.number
1  O=C1C=C(c2ccc([N+](=O)[O-])cc2)N2C=CC=CC12c1ccccn1 (stereo unspecified)             -4.2
2  O=C1C=C(c2ccc(-c3ccccc3)cc2)N2C=CC=CC12c1ccccn1 (stereo unspecified)             32.2
3  O=C1C=C(c2ccncc2)N2C=CC=CC12c1ccccn1 (stereo unspecified)              1.8
4  O=C1C=C(c2ccccn2)N2C=CC=CC12c1ccccn1 (stereo unspecified)              8.5
5  O=C1C=C(c2ccc3ccccc3c2)N2C=CC=CC12c1ccccn1 (stereo unspecified)             30.4
6  COc1ccc(C2=CC(=O)C3(c4ccccn4)C=CC=CN23)cc1 (stereo unspecified)             46.1

###

# System: HT-1080
# Assay Protocol: Cytotoxicity against human HT-1080 cells assessed as reduction in cell viability at 10 uM incubated for 72 hrs by MTT assay relative to control
# Assay type: functional
Think of 20% as a floor: if inhibition at 10 µM stands on it or above, it is Y; beneath it, N.

> print(dat)
                                   molecule  assigned.category
1  O=C1C=C(c2ccc(Cl)cc2)N2C=CC=CC12c1ccccn1 (stereo not given)                  N
2  O=C1C=C(c2ccccc2)N2C=CC=CC12C(F)(F)F (stereo not given)                  N
3  O=C1C=C(c2cccnc2)N2C=CC=CC12c1ccccn1 (stereo not given)                  Y
4  O=C1C=C(c2ccc3ccccc3c2)N2C=CC=CC12C(F)(F)F (stereo not given)                  N
5                   O=c1[nH]cc(F)c(=O)[nH]1                  Y

###

# System: MCF7
# Assay Protocol: Cytotoxicity against human MCF7 cells assessed as reduction in cell viability at 10 uM incubated for 72 hrs by MTT assay relative to control
# Assay type: functional
Property: inhibition at 10 µM; scope: individual compounds
Value Kind: inhibition at 10 µM (%)

> print(dat)
                                    compound  output.unit  measured.number
 1  O=C1C=C(c2ccc([N+](=O)[O-])cc2)N2C=CC=CC12c1ccccn1 (stereo unspecified)            %             12.5
 2  O=C1C=C(c2ccc(-c3ccccc3)cc2)N2C=CC=CC12c1ccccn1 (stereo unspecified)            %             14.3
 3  O=C1C=C(c2ccc3ccccc3c2)N2C=CC=CC12c1ccccn1 (stereo unspecified)            %             24.3
 4  O=C1C=C(c2cccnc2)N2C=CC=CC12c1ccccn1 (stereo unspecified)            %             16.5
 5  O=C1C=C(c2ccc(Cl)cc2)N2C=CC=CC12c1ccccn1 (stereo unspecified)            %              4.7
 6  O=C1C=C(c2ccc3ccccc3c2)N2C=CC=CC12C(F)(F)F (stereo unspecified)            %            -11.9
 7  COc1ccc(C2=CC(=O)C3(c4ccccn4)C=CC=CN23)cc1 (stereo unspecified)            %              0.6
 8                   O=c1[nH]cc(F)c(=O)[nH]1            %             41.9
 9  O=C1C=C(c2ccncc2)N2C=CC=CC12c1ccccn1 (stereo unspecified)            %             19.3
10  O=C1C=C(c2ccccn2)N2C=CC=CC12c1ccccn1 (stereo unspecified)            %              7.9
11  O=C1C=C(c2ccccc2)N2C=CC=CC12C(F)(F)F (stereo unspecified)            %             18.7
